# MEASUREMENT_PROTOCOL: gradient 5% acetonitrile 3 min, to 50% in 2 min, to 85% in 15 min, held 3 min, 100 µL/min
# STATED_CONDITIONS: column: Zorbax Extend-C18 2.1 x 50 mm; eluents: water / acetonitrile, 0.1% formic acid
RP-LC retention time by entry:
OUTCOME_MEASURE: RP-LC retention time (s)

>>> meas_value("Cc1cnc(NC(=O)c2ccc(N3CCCC3)nn2)s1")
636
>>> meas_value("O=C(Nc1cccnc1)C1CCN(S(=O)(=O)Cc2ccccc2)CC1")
626
>>> meas_value("Cc1ccc(NC(=O)N2CCC3(CC2)NC(=O)c2cc(F)ccc2N3C)cc1C")
832
>>> meas_value("COc1ccc(CCC(=O)N2CCN(c3nnc4ccc(C(F)(F)F)cn34)CC2)cc1")
709
>>> meas_value("CCCN(CC1CC1)C(=O)[C@@H]1COCC(=O)N1Cc1ccccc1")
818
>>> meas_value("Cc1cnc(C(=O)NCC2Cn3cccc3C(=O)N2C)cn1 (centres undefined)")
595
>>> meas_value("Cn1c(=O)c2c(C(=O)NCC3CCN(Cc4cccc(Cl)c4)CC3)cc(=O)n(C)c2n(C)c1=O")
632
>>> meas_value("CCCOc1nccnc1NC1CCN(C(=O)c2ccnn2C)CC1")
706
>>> meas_value("CCn1cnc(S(=O)(=O)N2CCCC(C(=O)Nc3ccc(F)cc3)C2)c1 (centres undefined)")
726
>>> meas_value("CN1C(=C=Cc2cc(I)c(O)c(I)c2)C(C)(C)c2ccccc21")
890
>>> meas_value("Oc1c(C(Nc2ccccn2)c2ccccc2F)ccc2cccnc12 (centres undefined)")
604
>>> meas_value("N#Cc1ccc(C(=O)NC(c2ccccc2)c2nnc(N3CCCC3)o2)cc1 (centres undefined)")
765
>>> meas_value("O=C(NCc1cccc(Cl)c1)c1cccn1-c1cccnc1")
749
>>> meas_value("CCc1ccc(CNC(=O)c2cn3ccccc3n2)cc1")
757

Data origin: the METLIN SMRT retention time set (Domingo-Almenara et al. 2019)
